# procedureDetails: Caco-2 permeability assay (CacoReady kit)
# Format: in vitro ADME
# recordedConditions: human, Caco-2, Caco-2 barrier, CacoReady kit; above 1×10^−6 cm/s classified as permeable
measuredQuantity: Papp

Recorded Papp, per entry:
compound	Papp
CNC(=O)C(=O)CC[C@H](NC(=O)c1ccncc1)C(=O)Nc1cccn(CC(=O)NC2C3CC4CC(C3)CC2C4)c1=O (some centres unmarked)	< 1 ×10⁻⁶ cm/s
CNC(=O)C(=O)CC[C@H](NC(=O)c1sc(OC)nc1C)C(=O)Nc1cccn(CC(=O)NC2C3CC4CC(C3)CC2C4)c1=O (some centres unmarked)	< 1 ×10⁻⁶ cm/s
CNC(=O)C(=O)CC[C@H](NC(=O)c1cc2c(Br)cccc2o1)C(=O)Nc1cccn(CC(=O)NC2C3CC4CC(C3)CC2C4)c1=O (some centres unmarked)	1 to 10 ×10⁻⁶ cm/s

Notebook: CNC(=O)C(=O)CC[C@H](NC(=O)c1cc2ccccc2s1)C(=O)Nc1cccn(CC(=O)NC2C3CC4CC(C3)CC2C4)c1=O (some centres unmarked) , Papp read as 1 to 10 ×10⁻⁶ cm/s

// Papp lookup, compound = CNC(=O)C(=O)CC[C@H](NC(=O)c1cncn1C)C(=O)Nc1cccn(CC(=O)NC23CC4(C)CC(C)(CC(C)(C4)C2)C3)c1=O , result: < 1 ×10⁻⁶ cm/s

Lab book: Papp of O=C(Cn1cccc(NC(=O)[C@H](CCC(=O)C(=O)NCc2ccccc2)NC(=O)c2cc3ccccc3o2)c1=O)NC1C2CC3CC(C2)CC1C3 (some centres unmarked) noted as 1 to 10 ×10⁻⁶ cm/s

For reference, reported Papp for NC(=O)C(=O)CC[C@H](NC(=O)c1cc(Cl)sc1Cl)C(=O)Nc1cccn(CC(=O)NC2C3CC4CC(C3)CC2C4)c1=O (some centres unmarked) stands at 1 to 10 ×10⁻⁶ cm/s

Looking up CNC(=O)C(=O)CC[C@H](NC(=O)c1[nH]c2ccccc2c1C)C(=O)Nc1cccn(CC(=O)NC2C3CC4CC(C3)CC2C4)c1=O (some centres unmarked) , I see its Papp listed as 1 to 10 ×10⁻⁶ cm/s

Form field Papp, entry CNC(=O)C(=O)CC[C@H](NC(=O)c1oc2ccccc2c1C)C(=O)Nc1cccn(CC(=O)NC2C3CC4CC(C3)CC2C4)c1=O (some centres unmarked) : 1 to 10 ×10⁻⁶ cm/s

Reported Papp ( CNC(=O)C(=O)CC[C@H](NC(=O)c1noc(C)n1)C(=O)Nc1cccn(CC(=O)NC23CC(C2)C3)c1=O ) = < 1 ×10⁻⁶ cm/s

Recorded Papp (compound CNC(=O)C(=O)CC[C@H](NC(=O)c1coc(S(N)(=O)=O)c1)C(=O)Nc1cccn(CC(=O)NC2C3CC4CC2CC(NC(C)=O)(C4)C3)c1=O (some centres unmarked) ): < 1 ×10⁻⁶ cm/s

Item: CCC12CC3CC(C1)C(NC(=O)Cn1cccc(NC(=O)[C@H](CCC(=O)C(=O)NC)NC(=O)c4ccc5cnccc5n4)c1=O)C(C3)C2 (some centres unmarked) | Papp: 1 to 10 ×10⁻⁶ cm/s

# compound CNC(=O)C(=O)CC[C@H](NC(=O)c1sc(C(F)(F)F)nc1C)C(=O)Nc1cccn(CC(=O)NC2C3CC4CC(C3)CC2C4)c1=O (some centres unmarked) ; its Papp = 1 to 10 ×10⁻⁶ cm/s

Papp measured on CNC(=O)C(=O)CC[C@H](NC(=O)c1ccnn1C)C(=O)Nc1cccn(CC(=O)N[C@@H]2C[C@@H]3CC[C@H]2C3)c1=O = < 1 ×10⁻⁶ cm/s

Entry under test: CNC(=O)C(=O)CC[C@H](NC(=O)c1oc2ccccc2c1C)C(=O)Nc1cccn(CC(=O)NC2(C#N)C3CC4CC(C3)CC2C4)c1=O (some centres unmarked) . Its Papp was < 1 ×10⁻⁶ cm/s

GET /value?item= CNC(=O)C(=O)CC[C@H](NC(=O)c1oc2ccccc2c1C)C(=O)Nc1cccn(CC23CC4CC(CC(C4)C2)C3)c1=O &field=Papp returns 1 to 10 ×10⁻⁶ cm/s

GET /value?item= CNC(=O)C(=O)CC[C@H](NC(=O)[C@@H]1CCCCN1)C(=O)Nc1cccn(CC(=O)NC2C3CC4CC(C3)CC2C4)c1=O (some centres unmarked) &field=Papp returns < 1 ×10⁻⁶ cm/s

Kindly note the recorded Papp for CNC(=O)C(=O)CC[C@H](NC(=O)c1csc(Cl)n1)C(=O)Nc1cccn(CC(=O)NC2C3CC4CC(C3)CC2C4)c1=O (some centres unmarked) , which is 1 to 10 ×10⁻⁶ cm/s

Where do the numbers come from? From patent US20240383856A1.
